These entries and their values trace back to paper PMC3817407.

# Test Target: T1, ECF22_4450
# T1 chain: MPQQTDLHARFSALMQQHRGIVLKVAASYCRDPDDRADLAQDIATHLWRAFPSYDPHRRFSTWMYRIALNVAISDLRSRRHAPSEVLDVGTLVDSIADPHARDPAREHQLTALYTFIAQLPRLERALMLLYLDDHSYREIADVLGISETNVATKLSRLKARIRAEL
Recorded Metric: fold repression

1) AS25_1643_cl43 (protein) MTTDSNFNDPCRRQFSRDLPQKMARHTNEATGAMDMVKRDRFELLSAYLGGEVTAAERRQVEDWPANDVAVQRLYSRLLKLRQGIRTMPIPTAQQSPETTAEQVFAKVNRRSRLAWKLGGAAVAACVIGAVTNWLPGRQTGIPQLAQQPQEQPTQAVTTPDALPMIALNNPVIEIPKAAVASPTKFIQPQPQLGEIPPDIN: 3.35

Ask: For AS27_1331 (protein) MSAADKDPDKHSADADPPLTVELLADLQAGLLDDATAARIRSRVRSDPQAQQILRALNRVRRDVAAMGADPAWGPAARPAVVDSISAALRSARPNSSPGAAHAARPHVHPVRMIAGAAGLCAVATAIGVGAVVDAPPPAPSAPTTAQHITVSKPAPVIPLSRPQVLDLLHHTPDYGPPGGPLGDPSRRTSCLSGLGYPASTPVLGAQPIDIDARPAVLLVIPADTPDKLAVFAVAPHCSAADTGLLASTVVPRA , write its fold repression.
Result: 5.86
